The compounds listed here are annotated with their CC50.
Assay: NOVARTIS: Cytotoxicity against human hepatocellular carcinoma cell line (Huh7)
Format: toxicity, cell-based, Huh-7
Details: Huh7 cells (hepatocellular carcinoma cell line)
EXPERIMENTAL_READOUT: CC50

[
  {
    "COMPOUND": "CCNc1nc(NC(C)CC)nc(ON=C(C)C)n1 (stereo unspecified)",
    "RESULT": "> 100 µM"
  },
  {
    "COMPOUND": "COc1ccc(S(=O)(=O)NCCCCNc2ccnc3cc(Cl)ccc23)cc1",
    "RESULT": "> 10 µM"
  },
  {
    "COMPOUND": "COc1cc(OC)c(N(C)C(=O)c2cn(C3CCCC3)c(=O)c3c2c2ccccc2n3C)cc1Cl",
    "RESULT": "47.2 µM"
  },
  {
    "COMPOUND": "CCOC(=O)CCC(=O)Oc1cc(C(C)(C)C)nn1-c1ccc(Cl)c(Cl)c1",
    "RESULT": "> 11.1 µM"
  },
  {
    "COMPOUND": "CCOC(=O)c1ccc2nc(-c3ccccc3)cc(O)c2c1",
    "RESULT": "> 100 µM"
  },
  {
    "COMPOUND": "COc1cccc(OCCN2CCN(c3ncnc4c3cnn4-c3ccccc3)CC2)c1",
    "RESULT": "> 75.7 µM"
  },
  {
    "COMPOUND": "CC[N+](C)(CC)CCSc1nc2ccccc2c(=S)n1-c1ccc(OC)cc1",
    "RESULT": "> 10 µM"
  },
  {
    "COMPOUND": "CC1CN(C(=O)CCCSc2nnc(Cc3ccccc3)n2-c2ccc(Cl)c(Cl)c2)CC(C)O1 (stereo unspecified)",
    "RESULT": "> 100 µM"
  },
  {
    "COMPOUND": "COc1cccc(-n2sc3c(c2=S)-c2cc(OC)ccc2NC3(C)C)c1",
    "RESULT": "> 10 µM"
  },
  {
    "COMPOUND": "CC(=O)OC1CCC2(C)C(CCC3C2CCC2(C)C3CC(O)C2(O)C(C)=O)C1 (stereo unspecified)",
    "RESULT": "> 10 µM"
  },
  {
    "COMPOUND": "COC(=O)c1c(OCc2ccc(F)cc2)cc(=O)n2c1CCN(Cc1ccccc1)CC2",
    "RESULT": "> 100 µM"
  },
  {
    "COMPOUND": "O=C(Nc1ccc(C2=NCCN2)cc1)c1cc(Cl)c(C(=O)Nc2ccc(C3=NCCN3)cc2)cc1Cl",
    "RESULT": "> 10 µM"
  },
  {
    "COMPOUND": "CCOC(=O)C1=C(C)N(CCNc2ncc(C(F)(F)F)cc2Cl)C(=O)CC1",
    "RESULT": "> 100 µM"
  },
  {
    "COMPOUND": "Cc1onc(-c2ccccc2)c1C(=O)N1CCC(CNc2c(-c3ccoc3)nc3ccccn23)CC1",
    "RESULT": "96.5 µM"
  },
  {
    "COMPOUND": "COc1ccc(C=NNc2nc3ccccc3[nH]2)cc1OC",
    "RESULT": "36.5 µM"
  },
  {
    "COMPOUND": "CCC(C(=O)Oc1ccccc1-c1nc2ccccn2c1NC(C)(C)CC(C)(C)C)c1ccccc1 (stereo unspecified)",
    "RESULT": "> 10 µM"
  },
  {
    "COMPOUND": "CCN(CC)CCCC(C)N=c1[nH]c(C=Cc2ccccc2OC)nc2cc(Cl)ccc12 (stereo unspecified)",
    "RESULT": "7.93 µM"
  },
  {
    "COMPOUND": "Cc1ccn2c(NC(C)(C)CC(C)(C)C)c(-c3ccccc3OC(=O)C(c3ccccc3)c3ccccc3)nc2c1",
    "RESULT": "> 1.12 µM"
  },
  {
    "COMPOUND": "CCCCCN(CC(=O)Nc1cc(C(C)(C)C)nn1-c1ccc(Cl)c(Cl)c1)C(=O)c1ccc2c(c1)OCO2",
    "RESULT": "> 10 µM"
  },
  {
    "COMPOUND": "CN(CCCNc1ccnc2cc(Cl)ccc12)C(=O)COc1ccc(Cl)cc1",
    "RESULT": "20.3 µM"
  },
  {
    "COMPOUND": "COc1cc2c(cc1/C=C(/C#N)c1cccc(C)c1)OCO2",
    "RESULT": "> 10 µM"
  },
  {
    "COMPOUND": "COc1cc2nc(CN(C)C(C)c3cccs3)nc(N3CCCC3)c2cc1OC (stereo unspecified)",
    "RESULT": "26.4 µM"
  },
  {
    "COMPOUND": "COc1ccc2nc(-c3ccccc3)cc(NCCN(C)C)c2c1",
    "RESULT": "> 10 µM"
  },
  {
    "COMPOUND": "CCOC(=O)c1cnc2ccc(Cl)cc2c1Nc1ccc(OC)c(OC)c1",
    "RESULT": "> 100 µM"
  },
  {
    "COMPOUND": "CCN1C=CC(=Cc2ccc3ccccc3[n+]2C)C=C1",
    "RESULT": "20 µM"
  },
  {
    "COMPOUND": "COCCNC(=O)C(c1ccc(C)cc1)N(Cc1ccccc1)C(=O)CCC(=O)Nc1nccs1 (stereo unspecified)",
    "RESULT": "> 100 µM"
  },
  {
    "COMPOUND": "CN(C)C(=O)O[n+]1ccc(N(C)C)cc1",
    "RESULT": "> 10 µM"
  },
  {
    "COMPOUND": "COC(=O)c1c(-c2c(F)cccc2Cl)noc1/C=C/Nc1ccccc1",
    "RESULT": "> 10 µM"
  },
  {
    "COMPOUND": "Cc1cc(N2CCN(C)CC2)nc2ccc(NC(=O)c3ccc(Br)o3)cc12",
    "RESULT": "53.7 µM"
  },
  {
    "COMPOUND": "CN(CCCNc1ccnc2cc(Cl)ccc12)S(=O)(=O)c1ccc([N+](=O)[O-])cc1",
    "RESULT": "> 11.1 µM"
  },
  {
    "COMPOUND": "Cc1ccc(-n2c(SCc3cccc4ccccc34)nc3sc4c(c3c2=O)CCN(C)C4)cc1",
    "RESULT": "> 100 µM"
  }
]
